system: platelet aggregation induced by ADP; experiment: Platelet Aggregation-Inhibition Action 2 (ADP-induced, platelet-rich plasma); format: cell-based; settings: ADP 1-3 μM final, PRP, compound added one minute before ADP
property: IC50 (µM)

(P) O=C(O)COc1cccc2c1ccn2CCOCC(c1ccccc1)c1ccccc1 [Example 109]
(Q) O=C(O)COc1cccc2c1CCN2CCOCC(c1ccccc1)c1ccccc1 [Example 122]
**Query** Parameter metric = IC50. Return the lower-valued option from P and Q . Write down the label attached to your selection.
**Result** Q
(Q: 2.7 µM, P: 27.9 µM)

(P) C[C@H](COC(c1ccccc1)c1ccccc1)OCc1coc2c(OCC(=O)O)cccc12 [Example 97]
(Q) Cc1oc2c(OCC(=O)O)cccc2c1CCON=C(c1ccccc1)c1ccccc1 [Example 35]
**Query** Could you please tell me which of these two has the higher IC50: P or Q ? Response format: the label of the selected entry.
**Result** Q

====

target: TXA2 receptor (Homo sapiens, UniProt P21731); construct: the finally obtained precipitate was collected as the platelet membrane fraction; endogenous in cells; experiment: TXA2 Receptor Binding Test 2 ([3H]SQ29548, human platelet membrane fraction); conditions: 25° C., 30 minutes, pH 7.4, Ki=IC50/[1+(radioactive ligand concentration/Kd)]
Sequence (P21731 whole entry): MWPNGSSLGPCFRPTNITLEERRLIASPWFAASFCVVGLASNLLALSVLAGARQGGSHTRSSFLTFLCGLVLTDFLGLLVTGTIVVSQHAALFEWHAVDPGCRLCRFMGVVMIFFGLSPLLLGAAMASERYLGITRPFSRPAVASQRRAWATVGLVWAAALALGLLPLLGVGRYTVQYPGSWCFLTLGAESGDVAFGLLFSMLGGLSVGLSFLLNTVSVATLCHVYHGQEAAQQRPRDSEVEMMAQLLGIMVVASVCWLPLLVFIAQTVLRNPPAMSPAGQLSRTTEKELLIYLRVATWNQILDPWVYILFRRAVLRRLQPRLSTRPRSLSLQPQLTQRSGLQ
property: Ki (µM)

{"columns": ["compoundString", "property", "quantitativeReadout"],
 "data": [
  ["COC(=O)COc1cccc2c(CCSC(c3ccccc3)c3ccccc3)coc12", "Ki", 0.31]
]}

(A) O=C(O)COc1cccc2c(COCCC(c3ccccc3)c3ccccc3)coc12
(B) O=C(O)COc1cccc2c1ccn2CCCC(c1ccccc1)c1ccccc1
**Query** Would you mind telling me which has the lower recorded Ki between A and B ? Bench note: the answer is the label of the chosen record.
**Result** B

====

Test system: platelet aggregation induced by ADP
Experiment: Platelet Aggregation-Inhibition Action 2 (ADP-induced, platelet-rich plasma)
Format: cell-based
Conditions: ADP 1-3 μM final, PRP, compound added one minute before ADP
Protocol: Platelet Aggregation-Inhibition Action 2 Blood collected from medial cubital vein is centrifuged at 800 rmp for 10 minutes and the upper portion of the resultant is collected as platelet-rich plasma PRP). The PRP is dividedly poured into small test tubes and ADP is added thereto (final concentration: 1-3 μM) so as to induce platelet aggregation. The degree of platelet aggregation is measured in terms of change in turbidity by a platelet aggregation measuring apparatus Hematoracer, NIKO BIOSCIENCE). […]
pIC50: −log10 of the molar value.
property: pIC50

{"columns": ["molecule", "pIC50"],
 "data": [
  ["Cc1oc2c(OCC(=O)O)cccc2c1CCSC(c1ccccc1)c1ccccc1 [Example 81]", 5.35],
  ["O=C(O)COc1cccc2c(CCCSC(c3ccccc3)c3ccccc3)coc12 [Example 91]", 5.72],
  ["O=C(O)COc1cccc2c(COCC(c3ccccc3)c3ccccc3)coc12 [Example 49]", 5.09]
]}

(A) O=C(O)COc1cccc2c1ccn2CCCC(c1ccccc1)c1ccccc1 [Example 118]
(B) O=C(O)COc1cccc2c(COCCC(c3ccccc3)c3ccccc3)coc12 [Example 48]
**Query** Of A and B , whose reported pIC50 is the larger number? Select an item and report its label.
**Result** A

(a) Cc1oc2c(OCC(=O)O)cccc2c1CNS(=O)(=O)Cc1ccccc1 [Example 15]
(b) O=C(O)COc1cccc2c(CCSCC(c3ccccc3)c3ccccc3)coc12 [Example 88]
**Query** When the recorded pIC50 values are compared, which is smaller: that of a or that of b ? Write the label of whichever entry you select.
**Result** a
(a: 3.70, b: 6.14)

====

Molecular target: TXA2 receptor (Oryctolagus cuniculus)
Sequence (Q6WQI8 1-233): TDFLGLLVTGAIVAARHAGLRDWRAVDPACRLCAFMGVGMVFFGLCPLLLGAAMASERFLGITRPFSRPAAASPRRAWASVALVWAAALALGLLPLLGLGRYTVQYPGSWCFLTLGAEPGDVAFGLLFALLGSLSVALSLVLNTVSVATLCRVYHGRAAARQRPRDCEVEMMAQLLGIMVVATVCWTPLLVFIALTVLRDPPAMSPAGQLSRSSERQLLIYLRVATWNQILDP
pIC50: −log10 of the molar value.
property: pIC50

{"columns": ["compound", "pIC50"],
 "data": [
  ["Cc1oc2c(OCC(=O)O)cccc2c1CC[S+]([O-])CCc1ccccc1 (stereo not drawn)", 6.24]
]}

(I) O=C(O)COc1cccc2c(CNS(=O)(=O)c3ccc4ccccc4c3)coc12
(II) Cc1oc2c(OCC(=O)O)cccc2c1CNS(=O)(=O)CCc1ccccc1
**Query** Task for the reader: decide whether I or II has the larger pIC50. # respond with the chosen item's label
**Result** I

(P) O=C(O)COc1cccc2c(CCOC(c3ccccc3)c3ccccc3)coc12
(Q) O=C(O)COc1cccc2c(CNS(=O)(=O)CCCc3ccccc3)coc12
**Query** For the pair P and Q , which entry has the numerically smaller recorded pIC50? Let me know the label of the one you choose.
**Result** P
(P: 7.16, Q: 8.35)

(a) O=C(O)COc1cccc2c(COC(Cc3ccccc3)Cc3ccccc3)coc12
(b) Cc1ccc(S(=O)(=O)NCCn2ccc3c(OCC(=O)O)cccc32)cc1
(c) Cc1oc2c(OCC(=O)O)cccc2c1CNS(=O)(=O)CCCc1ccccc1
(d) CC(C)c1oc2c(OCC(=O)O)cccc2c1CNS(=O)(=O)CCc1ccccc1
**Query** Ascending by pIC50, please: list the compounds accordingly. # output: labels, in the requested order
**Result** a, d, b, c

(P) Cc1oc2c(OCC(=O)O)cccc2c1CCNS(=O)(=O)CCc1ccccc1
(Q) C[C@@H](COCc1coc2c(OCC(=O)O)cccc12)c1ccccc1
**Query** For the pair P and Q , which member has the lower pIC50 number? Answer by quoting the chosen item's label.
**Result** Q

(A) Cc1oc2c(OCC(=O)O)cccc2c1CNS(=O)(=O)Cc1ccccc1
(B) Cc1oc2c(OCC(=O)O)cccc2c1CCNS(=O)(=O)Cc1ccccc1
(C) O=C(O)COc1cccc2c(CCOCC(=O)c3ccccc3)coc12
(D) Cc1oc2c(OCC(=O)O)cccc2c1CCSCCc1ccccc1
**Query** # desc sort on pIC50 across 4 compounds Give your ranking as a list of the labels in the requested order.
**Result** B, D, A, C
(B: 7.73, D: 7.29, A: 5.96, C: 5.44)

(A) O=C(O)COc1cccc2c1ccn2CCNS(=O)(=O)c1ccccc1
(B) Cc1oc2c(OCC(=O)O)cccc2c1CCS(=O)(=O)CCc1ccccc1
(C) O=C(O)COc1cccc2c(CCOCc3ccc(-c4ccccc4)cc3)coc12
**Query** # ascending order, key=pIC50 Response field: labels, in requested order.
**Result** C, B, A
(C: 6.22, B: 7.04, A: 7.57)

====

tested on: platelet aggregation induced by TXA2 agonist U-46619; assay: Platelet Aggregation-inhibition Action 1 (U-46619-induced, platelet-rich plasma); format: cell-based; conditions: U-46619 1-4 μM final, PRP, compound added one minute before U-46619
pIC50: −log10 of the molar value.
property: pIC50

{"columns": ["compoundString", "property", "quantitativeReadout"],
 "data": [
  ["O=C(O)COc1cccc2c(CNS(=O)(=O)CCCc3ccccc3)coc12", "pIC50", 6.52],
  ["CC(C)c1oc2c(OCC(=O)O)cccc2c1CNS(=O)(=O)CCc1ccccc1", "pIC50", 5.85]
]}

(a) Cc1ccc(S(=O)(=O)NCCn2ccc3c(OCC(=O)O)cccc32)cc1
(b) O=C(O)COc1cccc2c(CCSCC(c3ccccc3)c3ccccc3)coc12
(c) O=C(O)COc1cccc2c(CNS(=O)(=O)c3ccc4ccccc4c3)coc12
(d) O=C(O)COc1cccc2cc(COCCOC(c3ccccc3)c3ccccc3)oc12
**Query** Arrange by pIC50, high to low. Order the labels as requested and give them as your answer.
**Result** b, a, c, d

====

tested on: platelet aggregation induced by TXA2 agonist U-46619; assay: Platelet Aggregation-inhibition Action 1 (U-46619-induced, platelet-rich plasma); type: cell-based; settings: U-46619 1-4 μM final, PRP, compound added one minute before U-46619
property: IC50 (µM)

Here's what some known entries look like.
{"columns": ["molecule", "systemName", "IC50, µM"],
 "data": [
  ["Cc1oc2c(OCC(=O)O)cccc2c1CCNS(=O)(=O)Cc1ccccc1", "platelet aggregation induced by TXA2 agonist U-46619", 0.088],
  ["O=C(O)COc1cccc2c1ccn2CCSC(c1ccccc1)c1ccccc1", "platelet aggregation induced by TXA2 agonist U-46619", 0.84],
  ["O=C(O)COc1cccc2c(CCSC(c3ccccc3)c3ccccc3)c(CCO)oc12", "platelet aggregation induced by TXA2 agonist U-46619", 0.62],
  ["O=C(O)COc1cccc2c(CNS(=O)(=O)CCc3ccccc3)coc12", "platelet aggregation induced by TXA2 agonist U-46619", 1],
  ["Cc1oc2c(OCC(=O)O)cccc2c1CNS(=O)(=O)Cc1ccccc1", "platelet aggregation induced by TXA2 agonist U-46619", 1],
  ["O=C(O)COc1cccc2c(CC(O)CCC(c3ccccc3)c3ccccc3)coc12 (stereo not drawn)", "platelet aggregation induced by TXA2 agonist U-46619", 1.5],
  ["O=C(O)COc1cccc2c(CNS(=O)(=O)CCOc3ccccc3)coc12", "platelet aggregation induced by TXA2 agonist U-46619", 1.1],
  ["O=C(O)COc1cccc2c1CCN2CCSC(c1ccccc1)c1ccccc1", "platelet aggregation induced by TXA2 agonist U-46619", 0.72]
]}

(1) O=C(O)COc1cccc2c(COCCC(c3ccccc3)c3ccccc3)coc12
(2) O=C(O)COc1cccc2c(COCCOC(c3ccccc3)c3ccccc3)coc12
**Query** Please compare: 1 and 2 . Report which one has the smaller IC50 value. Please reply using the label of the selected record.
**Result** 2
(2: 0.33 µM, 1: 4.8 µM)

Origin of measurements: patent US6323235A
